Target entity: T1, kallikrein related peptidase 2 (hK2), soluble (human, UniProt P20151 19-261, biotin label in the CAR staining assays (site not stated))
T1 construct: also called KLK2; human KLK2 protein
T1 sequence (P20151 19-261): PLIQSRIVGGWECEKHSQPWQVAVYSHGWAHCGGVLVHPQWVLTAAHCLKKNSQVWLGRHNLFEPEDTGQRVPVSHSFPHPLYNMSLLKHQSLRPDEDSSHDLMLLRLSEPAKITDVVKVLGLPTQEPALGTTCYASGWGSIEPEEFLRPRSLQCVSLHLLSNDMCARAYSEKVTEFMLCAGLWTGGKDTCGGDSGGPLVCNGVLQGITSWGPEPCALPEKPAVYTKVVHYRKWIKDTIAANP
Experiment notes: SPR; antibody captured on anti-Fc sensor chip, soluble hK2 injected; 1:1 Langmuir fit, KD = koff/kon
Value type: Kd (nM)
Give a bare numeral; the unit nM is implied.

Examples from the recorded data:
binder="KL2B30 (Fab) (Fab, V domains shown) VH: QVQLQESGPGLVKPSETLSLTCTVSGGSISSYYWSWIRQPPGKGLEWIGYIYYSGSTNYNPSLKSRVTISVDTSKNQFSLKLSSVTAADTAVYYCAGTTIFGVVTPNFYYGMDVWGQGTTVTVSS VL: DIQMTQSPSFLSASVGDRVTITCRASQGISSYLAWYQQKPGKAPKFLIYAASTLQSGVPSRFSGSGSGTEFTLTISSLQPEDFATYYCQQLNSYPLTFGGGTKVEIK" assay_value=0.46
binder="KL2B53 (Fab) (Fab, V domains shown) VH: EVQLVESGGGVVQPGRSLRLSCVASGFTFSSYDIHWVRQAPGKGLEWVAIISYDGSKKDYTDSVKGRFTISRDNSKNTLYLQMDSLRVEDSAVYSCARESGWSHYYYYGMDVWGQGTMVTVSS VL: DIVMTQSPSSLSASVGDRVTITCRASQDISNYLAWYQQKPGKVPKFLIYAASTLHSGVPSRFSGSGSGTDFTLTISSLQPEDVATYYCQKYNSAPYTFGQGTRLEIK" assay_value=0.08
binder="KL2B494 (Fab) (Fab, V domains shown) VH: QVQLVESGGGLVQPGGSLRLSCAASGFTFSHYAMSWVRQAPGKGLEWVSTIGGSGGSTYYADSVKGRFTISRDNSKNTLYLQMNSLRAEDTAVYYCAKPHIVMVTALLYDGMDVWGQGTMVTVSS VL: SSELTQPPSVSVAPGQTARITCGGNNIGSKSVHWYQQKPGQAPVLVVYDDSDRPSGIPERFSGSNSGNTATLTISRVEAGDEADYYCQVWDSSSDHVVFGGGTKLTVL" assay_value=0.053
binder="KL2B467 (Fab) (Fab, V domains shown) VH: QVQLVESGGGVVQPGRSLRLSCAASGFTFSYYGMHWVRQAPGKGLEWVAFISYDGSNKYYADSVKGRFTISRDNSKNTLYLQMNSLRAEDTAVYYCAHLPYSGSYWAFDYWGQGTQVTVSS VL: QSVLTQPPSVSVAPGQTASITCGGDNIGSKSVHWYQQKPGQAPVLVVYDNSDRPSGIPERFSGSNSGTTATLTISRVEAGDEADYYCQVWDSSSDHPVVFGGGTKVTV" assay_value=0.078

Turning now to a further binder:
Quote Kd reported for KL2B242 (Fab) (Fab, V domains shown) VH: QVQLQESGPGLVKPSETLSLTCTVSGGSISSYYWSWLRQPAGSGLEWIGRLYVSGFTNYNPSLKSRVTLSLDPSRNQLSLKLSSVTAADTAVYYCAGDSGNYWGWFDPWGQGTLVTVSS VL: SYELTQPPSVSVSPGETASITCSGDQLGENYACWYQQKPGQSPVLVIYQDSKRPSGIPERFSGSNSGNTATLTISGTQALDEADYYCQAWDNSIVVFGGGTKLTVL please.
0.04
